# credit: a melting point compilation (Tetko et al.; mined from patent text by program, amines drawn as free bases though some values may be those of a salt)

measured parameter: melting point

Q: Indicate the recorded melting point value for this compound: `COC(=O)/C(=N/O)c1cccc([N+](=O)[O-])c1`
Ans: 140 °C

Q: Please list melting point recorded for the compound Cc1cc(C#N)cc(CNc2c(NC(C)C(C)(C)C)c(=O)c2=O)c1 (stereo not given)
Ans: 244 to 247 °C

Q: Report measured melting point; entry is `COc1ccc2ccccc2c1C1CCN(CCCCNC(=O)c2ccc(-c3ccc(Cl)cc3)cc2)CC1`
Ans: 149 °C

Q: Quick one: give measured melting point for Cc1cccc(NC(=O)NC2N=C(N3CCCCCC3)c3ccccc3N(C)C2=O)c1 (single isomer, unassigned; (+))
Ans: 172 to 175 °C

Q: # return recorded melting point for entry `O=C(COc1cc(-c2ccccn2)nc2ccccc12)N1CCOCC1`
Ans: 185 °C

Q: Kindly indicate its recorded melting point. Item: `O=C(Oc1ccc(Br)cc1)c1ccccc1`
Ans: 98 to 100 °C

Q: Supply recorded melting point for `COc1cccc(OC)c1-c1ccc(C[C@H](NC(=O)c2c(Cl)cc(-c3ccc[nH]3)cc2Cl)C(=O)O)cc1` here.
Ans: 250 °C

Q: Give melting point for `CCCCNS(=O)(=O)c1ccc2nc3scc(C)n3c(=O)c2c1`
Ans: 165 to 167 °C

Q: Provide one value: measured melting point of CC(=NOCCOc1ccc(CC2SC(=O)NC2=O)cc1)c1cccc(Cl)c1 (stereo not given)
Ans: 82 to 84 °C

Q: Please supply the value of reported melting point for the item `O=C1Cc2c(cccc2N(CCN(Cc2ccccc2)C(=O)C(F)(F)F)C(=O)C(F)(F)F)N1`
Ans: 108 to 111 °C

Q: Retrieve melting point measured for `CC(C)(C(=O)Nc1ccc(Cl)cc1)/C(F)=C\F` and print it.
Ans: 100 °C

Q: In one line, give reported melting point of the entry `COc1ccc(CCc2nc(C(N)=O)c[nH]2)cc1` .
Ans: 218 to 219 °C

Q: Input `O=C(NCCO)c1cccc(-c2cccc3cc(Cc4ccc(=O)[nH]c4)sc23)c1` , output reported melting point.
Ans: 134 to 137 °C

Q: Assign melting point to the following record: `C=CCOc1ccc(Nc2ccn(-c3ccccc3)n2)cc1`
Ans: 80 to 81 °C

Q: Give the value of melting point reported for the following: `CCCCCCCCCOc1ncc(-c2ccc(O)cc2)cn1`
Ans: 89 to 90 °C

Q: Consider the compound `Clc1cccc(-c2n[nH]cc2-c2ccnc(NCc3ccccc3)c2)c1` and give its recorded melting point.
Ans: 179 to 180 °C

Q: Return reported melting point. Input compound: CC(=Cc1ccccc1Cl)C(O)(Cn1cncn1)c1ccc(Cl)cc1 (stereo not given)
Ans: 141 to 143 °C

Q: For the compound `CC(C)(C)OC(=O)N1CCN(c2ccc(C(=O)CSc3ccnc4ccccc34)cc2)CC1` , give its measured melting point value.
Ans: 153 to 154 °C

Q: Quick one: give measured melting point for CCC(Cc1ccc(S(=O)(=O)c2ccc(S(N)(=O)=O)s2)cc1)N(C)C (stereo not given)
Ans: 169 to 172 °C

Q: // fetch melting point given entry `CC(=O)c1ccc2c(c1)C(=O)C=C(C)C2=O`
Ans: 126 °C

====

Provide the recorded melting point for the entries that follow.

Q: Kindly indicate its recorded melting point. Item: CC(=O)NCC1CN(c2ccc(N3CCN(C(=O)COC(=O)c4cccnc4)CC3)c(F)c2)C(=O)O1 (stereo unspecified)
Ans: 173 to 175 °C

Q: Output melting point of Cn1nnc(-c2ccc(C#CC3(O)CN4CCC3CC4)cc2)n1 (stereo unspecified)
Ans: 228 to 230 °C

Q: Give reported melting point value for `COC(=O)C(=O)N1C(=O)[C@@H](NC(=O)OC(C)(C)C)[C@@H]1OC(C)=O`
Ans: 144 to 146 °C

Q: Name the recorded melting point of the molecule listed here: `N#Cc1ccc(CCO)nc1`
Ans: 92 to 93 °C

Q: Kindly indicate its recorded melting point. Item: FC(F)(F)C1(c2cc(Cl)cc(Cl)c2)CC(c2ccc(CBr)c(Cl)c2)=NO1 (stereo unspecified)
Ans: 94 to 97 °C

Q: Answer with the recorded melting point for the molecule listed here: `COc1ccc(C(=CCCC(=O)O)c2ccc(OC)cc2)cc1`
Ans: 113 to 114 °C

Q: Supply melting point value. Item: `COc1cccc(-c2cc3cnc(N)nc3nc2NC(=O)NC(C)(C)C)c1`
Ans: 275 to 280 °C

Q: Input `Oc1ccc(CNC2=NCCc3ccccc32)cc1` , output reported melting point.
Ans: 177 to 179 °C

Q: Tell me measured melting point for `CCCCCCCCC=CCCCCCCCCCCCC(=O)NC(=O)CN` please.
Ans: 128 to 130 °C

Q: Give me measured melting point, please, for this molecule: `COc1ccc(N2CCN(c3ccc(NC(=S)NC(C)(C)CO)cc3)CC2)cc1`
Ans: 222 °C

Q: Answer with reported melting point of `CC(C)Cc1nn(C)c(=O)c2cn(Cc3ccncc3)cc12`
Ans: 91 to 93 °C

Q: Tell me its melting point given `COC(=O)CCCCCCCCCCCCCCCCCCCCC(=O)c1c(C)cc(OC)c(OC)c1O` as the entry.
Ans: 72 to 72.5 °C

Q: Provide melting point value for the following molecule: `CCOc1cc2ncc(C#N)c(Nc3ccc4c(C)cc(=O)oc4c3)c2cc1OCC`
Ans: 282 to 284 °C

Q: Kindly indicate its recorded melting point. Item: CC(C)(C)OC(=O)N[C@H](Cc1ccc(Cl)c(Cl)c1)C(=O)N1CCC[C@H]1C(=O)NC1CCc2n[nH]cc2C1 (stereo partly specified)
Ans: 116 to 119 °C

Q: Using the record for `Cc1oc(-c2ccccc2)nc1COc1ccc(/C=C/C(=O)C(=O)O)cc1` , state its measured melting point.
Ans: 197 to 198 °C

Q: // fetch melting point given entry `N#Cc1c(N2CCN(C(=O)c3cccs3)CC2)c2cccnc2n(CC2CC2)c1=O`
Ans: 189 °C

Q: Name the recorded melting point of the item `Cc1oc(-c2ccccc2)nc1CCOc1ccc(C=O)c2ccccc12` in your answer.
Ans: 130 to 133 °C

Q: Dear colleague, please send me the reported melting point for O=C1NC(=O)C(CCOc2ccc(F)cc2)S1 (stereo unspecified) when you can.
Ans: 94 to 96 °C

Q: Please report the measured melting point for `Cc1cnc(C(N)=O)cn1`
Ans: 204 to 206 °C

Q: Using known records, supply melting point for `COc1cccc(OC2CN([C@H]3CC[C@@H](c4c[nH]c5ccc(F)cc54)CC3)C2)c1`
Ans: 125 to 127 °C

Q: State its melting point: `O=[N+]([O-])c1cc(O)c(F)cc1Cl`
Ans: 85 to 86 °C

====

measured parameter: melting point

Q: Answer with reported melting point of `COc1cc2nc(C(C)(C)C)sc2cc1NC(=S)N1CCN(CCO)CC1`
Ans: 161 to 162 °C

Q: Return reported melting point. Input compound: `FC(F)(F)c1cccc(CO[C@H]2CO[C@@H](c3ccccc3)OC2)c1`
Ans: 115 to 116 °C

Q: Name the recorded melting point of the compound listed here: N#CC(C#N)=C1C(=O)Nc2ccc(S(=O)(=O)N3CCCC3COc3ccccc3)cc21 (centres undefined)
Ans: 246 to 248 °C

Q: Determine its reported melting point: `Cc1nc(N2CCc3nc(N)sc3CC2)c([N+](=O)[O-])c(=O)[nH]1`
Ans: > 200 °C

Q: Find the measured melting point of `CC(=O)Oc1ccccc1-c1[nH]c2ccc(Cl)cc2c1-c1ccc(S(C)(=O)=O)cc1` and report it.
Ans: 238 to 240 °C

Q: Query melting point for `NS(=O)(=O)c1ccc(C(=O)c2ccc(O)cc2)s1`
Ans: 183 to 190 °C

Q: Dear colleague, please send me the reported melting point for `O=C(CBr)c1cc(OCc2ccccc2)no1` when you can.
Ans: 80 to 81 °C

Q: Retrieve melting point measured for `NS(=O)(=O)c1cccc(-c2cccc(-c3nc(-c4ccc(Cl)s4)cc(C(F)(F)F)n3)c2)c1` and print it.
Ans: 226 °C

Q: Give the reported value of melting point for this record: `c1cn(Cc2nc(-c3ccc4c(c3)OCO4)c3cc4c(cc3n2)OCO4)cn1`
Ans: 182 to 185 °C

====

Exercise: for every item that follows, state its recorded melting point.

Q: Look up and state reported melting point for `Cn1c(-c2ccccc2)cc2cc(N)ccc21`
Ans: 108 to 110 °C

Q: Output measured melting point for this item: `CC(C)(CO)NC(N)=S`
Ans: 127 to 129 °C

Q: Give the reported melting point for this compound. `O=c1[nH]c2cc(Cl)ccc2c(NS(=O)(=O)c2ccccc2)c1-c1ccccc1`
Ans: 268 °C

Q: Let me know recorded melting point for `CNc1[nH]c(-c2ccccc2)c(C)c1C#N` , thanks.
Ans: 138 to 139 °C

Q: // fetch melting point given entry `CC(C)(C)OC(=O)Nc1cc([N+](=O)[O-])c2ncccc2c1`
Ans: 134 to 135 °C

Q: Read the entry O=C(Nc1c([N+](=O)[O-])cnn1-c1c(Cl)cc(C(F)(F)F)cc1Cl)C1CCCO1 (stereo not given) and write its reported melting point.
Ans: 169 to 172 °C

Q: Answer with reported melting point of Cc1nc(-n2ccc(OCC3CCCO3)cc2=O)sc1C(=O)NCc1ccccc1 (stereo not given)
Ans: 181 to 183 °C

Q: // Input: Cc1ccc(C(=S)CC2CCCN(C)C2)cc1 (stereo not given) . Output its melting point only.
Ans: 61.5 to 62.5 °C

Q: Let me know recorded melting point for `COc1ccc(C(=O)Nc2ccc(OC)cc2NC(=O)c2ccc(OC)cc2)cc1` , thanks.
Ans: 238 to 239 °C

Q: State its melting point: `CCCCNC(=O)Oc1cccc(NC(=O)CC(C)=O)c1`
Ans: 112 °C

Q: Specify reported melting point for the compound shown: `COCn1cc(C2=C(c3cn(C)c4cc([N+](=O)[O-])ccc34)C(=O)NC2=O)c2ccccc21`
Ans: > 250 °C

Q: Consider the compound `O=C(NCc1ccc(C(F)(F)F)c(F)c1)Nc1cccc2[nH]ccc12` and give its recorded melting point.
Ans: 198 °C

Q: Give melting point for the following compound: CC(C)Oc1cccc(C(=O)N2CCN(C(=O)CNC3CCN(Cc4ccccc4)CC3)C(c3ccc(Cl)c(Cl)c3)C2)c1 (racemic)
Ans: 58 to 61 °C

Q: Name the recorded melting point of the item `CN1CCC(c2cc3c(N)cccc3c(=O)[nH]2)CC1` in your answer.
Ans: 222 to 224 °C

Q: For the compound `CCCCCCCC(=O)c1ccc(CCC(CCOC(C)=O)(CCOC(C)=O)NC(C)=O)cc1` , give its reported melting point.
Ans: 83 to 86 °C

Q: Indicate the recorded melting point value for this compound: `COC(=O)CSc1cccc(NC(=O)NCC(=O)N(CC(=O)OC(C)(C)C)c2ccccc2C(=O)c2ccccc2)c1`
Ans: 131 to 133 °C

Q: Kindly indicate its recorded melting point. Item: `Cc1c(CBr)oc2ccc(Cl)cc12`
Ans: 81 to 82 °C

Q: For the compound `ClCSc1c(Cl)c(Cl)cc(Cl)c1Cl` , give its reported melting point.
Ans: 81 to 82 °C

Q: Report measured melting point; entry is COC(=O)C(Oc1cc(OCc2ccsc2)cc(F)c1C#N)c1ccccc1Cl (racemic)
Ans: 143 to 144 °C

Q: Return melting point (reported value) for this compound: `COc1nc2cc(Cl)c(Cl)c(N(S(C)(=O)=O)S(C)(=O)=O)c2nc1OC`
Ans: 240 to 244 °C

Q: Read off the recorded melting point for N#Cc1ccc(CN2C(=O)C3(COc4cc5c(cc43)CCO5)c3ccccc32)cc1 (stereo not given)
Ans: 69 to 71 °C

Q: Give reported melting point value for `CO[C@@H]1[C@@H](OC)[C@H](C)O[C@@H](OC(=O)Nc2ccc(-c3ccnc(-c4ccc(C(F)(F)F)cc4)n3)cc2)[C@@H]1OC`
Ans: 176 to 179 °C

Q: Respond only with melting point recorded for `CCOC(=O)C1CCN(c2cc(-n3c(=O)cc(C(F)(F)F)[nH]c3=O)c(F)cc2C#N)CC1`
Ans: 124 °C

Q: Answer with the recorded melting point for the compound listed here: `CCc1cc(C(=O)c2ccccc2Cl)c(NC=C[N+](=O)[O-])s1`
Ans: 125 to 126 °C

Q: Give the reported melting point for this compound. COCCN(C)C(=O)NCCNCC(O)COc1ccc(OCCOCC(C)C)cc1 (stereo not given)
Ans: 60 to 63 °C

Q: Please give measured melting point of the following entry: `CCC(C)(CC)C(=O)O[C@H]1C[C@H](O)C=C2C=C[C@H](C)[C@H](CC[C@@H]3C[C@@H](O)CC(=O)O3)[C@H]21`
Ans: 152 to 154 °C

Q: Provide measured melting point value, entry: OC(c1ccc(Cl)cc1)c1cccc(Br)n1 (stereo not given)
Ans: 64.5 to 65 °C

Q: Please look at this compound and report its melting point: COc1ccc(COc2c(O)cc3c(c2Cl)CCN(C(=O)OC(C)(C)C)CC3c2ccc(O)cc2)cc1 (stereo not given)
Ans: 190 to 192 °C

Q: Given the compound Nc1cc(OCc2ccccc2)c(C(=O)NC2CN3CCC2CC3)cc1Cl (stereo not given) , write its reported melting point.
Ans: 170 to 171 °C

Q: Answer with reported melting point of `c1ccc(-c2ccc3[nH]c4ccc(-c5ccccc5)cc4c3c2)cc1`
Ans: 145 to 147 °C

Q: Assign melting point to the following record: `O=C1Cc2cc(Cl)ccc2Oc2ccc(F)cc21`
Ans: 91 to 92 °C

Q: Identify measured melting point associated with `N#CCc1cccnc1C#N`
Ans: 48 to 51 °C

Q: Item `COc1cc2c(cc1S(=O)(=O)Cl)CCN(C(C)=O)CC2` : provide melting point
Ans: 153 to 160 °C

Q: Name the recorded melting point of the compound listed here: CCCN(C)C(=O)COC1c2ccccc2C(=O)N1c1ccc2ccc(OC)nc2n1 (stereo not given)
Ans: 160 °C

Q: Please look at this compound and report its melting point: `CCOc1cc(OCc2ccc(OCc3nc(-c4ccccc4)oc3C)cc2)ccc1CCC(=O)O`
Ans: 135 to 136 °C

Q: Consider the compound `O=c1c2ccccc2sc2ccc(S(=O)(=O)C(F)(F)F)cc12` and give its recorded melting point.
Ans: 163 to 164 °C

Q: Give me measured melting point, please, for this compound: COc1ccccc1C1CC=NN1C(=O)c1cccnc1 (stereo not given)
Ans: 93 to 95 °C

Q: Identify melting point associated with the compound CN1CCC(C)(O)c2cccc(CSc3nc4ccccc4[nH]3)c21 (stereo not given)
Ans: 156 to 157 °C

Q: Specify measured melting point for `CCCC(=O)c1cccc2cc[nH]c12` .
Ans: 67.2 to 68.2 °C

Q: Hello, please tell me recorded melting point for this one: `O=C(c1ccccc1)n1c2ccccc2c2cc(O)c(O)cc21`
Ans: 260 to 261 °C
